assay: Blood levels of penciclovir in Pekin ducks after oral dosing with penciclovir or famciclovir; assay type: in vivo; conditions: duck, 20 mg/kg, 15 min, oral penciclovir 20 mg/kg, Duck No. 169
Result Type: concentration at 0.25 h (µM)
Answers are plain numbers, in µM.

Input: Query concentration at 0.25 h for Nc1nc2c(ncn2CCC(CO)CO)c(=O)[nH]1 [penciclovir]
Output: 41

###

assay: Blood levels of penciclovir in Pekin ducks after oral dosing with penciclovir or famciclovir; assay type: in vivo; conditions: duck, 5 mg/kg, 240 min, oral famciclovir 5 mg/kg, Duck No. 117
Result Type: concentration at 4 h

Input: // fetch concentration at 4 h given entry CC(=O)OCC(CCn1cnc2cnc(N)nc21)COC(C)=O
Output: ~500 nM
